# assayed-target: Cytochrome P450 2A5 (Mus musculus, UniProt P20852)
# Sequence (P20852 whole entry): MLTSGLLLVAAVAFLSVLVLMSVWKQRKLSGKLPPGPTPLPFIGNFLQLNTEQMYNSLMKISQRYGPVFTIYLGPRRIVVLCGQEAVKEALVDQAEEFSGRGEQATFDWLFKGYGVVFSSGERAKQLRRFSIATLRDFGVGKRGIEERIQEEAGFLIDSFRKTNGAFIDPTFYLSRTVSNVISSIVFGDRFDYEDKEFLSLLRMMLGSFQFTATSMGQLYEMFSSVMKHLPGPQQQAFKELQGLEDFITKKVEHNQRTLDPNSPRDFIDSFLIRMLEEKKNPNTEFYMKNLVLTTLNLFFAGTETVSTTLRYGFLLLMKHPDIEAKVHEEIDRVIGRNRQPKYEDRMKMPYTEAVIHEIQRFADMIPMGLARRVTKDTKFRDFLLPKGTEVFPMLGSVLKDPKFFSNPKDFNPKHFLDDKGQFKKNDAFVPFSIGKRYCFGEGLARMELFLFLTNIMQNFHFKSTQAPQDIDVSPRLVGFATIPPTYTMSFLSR
Exercise: for every item that follows, state its recorded pIC50.
Kindly note that pIC50 refers to -log10 of the concentration in mol/L and answer with the value alone.

Input line: Supply recorded pIC50 for Cc1ccc2cc(C)ccc2c1 here.
Output line: 5.77

Input line: Note down pIC50 recorded for NCCc1ccccc1
Output line: 3.00

Input line: Read off the recorded pIC50 for Oc1ccc2ccccc2c1
Output line: 4.11

Input line: Look up and state reported pIC50 for c1ccc2ccccc2c1
Output line: 4.13

---

# assayed-target: Cytochrome P450 2A6 (Homo sapiens)
# Sequence (P11509 whole entry): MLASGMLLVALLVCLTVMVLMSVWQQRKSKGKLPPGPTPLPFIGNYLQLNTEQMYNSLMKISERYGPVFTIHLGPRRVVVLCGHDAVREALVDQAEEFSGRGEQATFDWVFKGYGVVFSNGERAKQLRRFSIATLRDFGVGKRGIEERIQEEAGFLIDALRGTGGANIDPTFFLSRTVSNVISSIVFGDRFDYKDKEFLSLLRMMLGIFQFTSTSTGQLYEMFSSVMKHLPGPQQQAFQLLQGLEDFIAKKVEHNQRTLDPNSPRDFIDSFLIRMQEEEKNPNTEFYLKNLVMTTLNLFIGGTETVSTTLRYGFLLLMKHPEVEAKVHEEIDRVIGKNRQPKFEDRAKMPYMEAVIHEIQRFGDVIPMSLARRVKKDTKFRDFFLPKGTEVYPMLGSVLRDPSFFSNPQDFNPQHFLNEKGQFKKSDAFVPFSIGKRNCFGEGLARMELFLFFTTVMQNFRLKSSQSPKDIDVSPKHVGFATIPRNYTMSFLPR
pIC50: −log10 of the molar value.
Label yes when pIC50 is at or above 5; otherwise label no.

Input line: Assess whether reported pIC50 for Brc1ccc(Br)cc1 sits at 5 or higher.
Output line: no

Input line: Is pIC50 for O=C1CCCc2ccccc21 at or above 5?
Output line: no

Input line: Is the recorded value of pIC50 equal to or greater than 5 for this molecule? Clc1cccc2c(Cl)cccc12
Output line: yes

Input line: Given Cc1ccc2c(C)cccc2c1 , state whether its pIC50 is at least 5.
Output line: no

Input line: Evaluate O=Cc1ccccc1 : pIC50 at minimum 5?
Output line: yes

Input line: Has CC(=O)c1ccc2ccc(C)cc2c1 a recorded pIC50 greater than or equal to 5?
Output line: yes

Input line: pIC50 >= 5 for Clc1ccc2ccccc2c1Cl ?
Output line: no

Input line: Assess whether reported pIC50 for Cc1ccc(CCN)cc1 sits at 5 or higher.
Output line: yes

Input line: Given Cc1cccc2c(C)cccc12 , state whether its pIC50 is at least 5.
Output line: no

Input line: For this molecule, is measured pIC50 5 or higher? CC(N)Cc1ccccc1 (stereo unspecified)
Output line: yes

Input line: Please tell me: is the molecule COc1ccc(C=O)cc1 at or over 5 in terms of pIC50?
Output line: yes

Input line: Could you verify whether the entry c1ccc2ccccc2c1 shows pIC50 of no less than 5?
Output line: no

Input line: Item Cc1cnc2ccccc2c1 with pIC50 of 5 or above?
Output line: no

Input line: Reported pIC50 reaches at least 5 for Clc1ccc2ccc(Cl)cc2c1 ?
Output line: no

Input line: Determine whether measured pIC50 meets or exceeds 5 for Oc1ccc2ccccc2c1
Output line: no

Input line: Would you say Clc1ccc2ccccc2c1 shows pIC50 at minimum 5?
Output line: yes

Input line: Please indicate if the recorded pIC50 for NCCc1ccccc1 meets or exceeds 5.
Output line: no

Input line: Tell me whether pIC50 is at least 5 here: Clc1cccc2ccccc12
Output line: no

Input line: Please indicate if the recorded pIC50 for Cc1ccc2ccc(C)nc2c1 meets or exceeds 5.
Output line: no

Input line: Determine whether measured pIC50 meets or exceeds 5 for Clc1ccc(Cl)cc1
Output line: no
